assay-system: MMP-14 (Homo sapiens, UniProt P50281)
protocol-description: Selection and phage ELISA screening of anti-MMP-14 Fabs
Format: binding
applied-conditions: Fab from FAB310 phage display library
Experimental: Strategy I: A 100-fold excess of the FAB310 library (e.g., an amount of the library that should contain 100 copies of each library member) was depleted of streptavidin-binding antibodies by incubating the library with 200 μL of streptavidin beads for 1 hour at room temperature (RT) with rotation. 500 nM of biotinylated MMP-14 was coupled to streptavidin beads by incubation with 100 μL of streptavidin beads. […]
readout-label: bind to human MMP-14

INSERT INTO assay_data (molecule, readout_label, test_result) VALUES
  ('M0036-D02: Fab that binds human MMP-14; DNA LV SEQ ID NO: 30, HV SEQ ID NO: 31 (antibody, V domains shown, Synthetically generated oligonucleotide) VL: QDIQMTQSPATLSLSPGEKATLSCRASQTVYNYLAWYQQKPGQAPRLLIYDAFNRATGIPARFSGSGSGTDFTLTISSLEPEDFAVYYCQQRGNWPRTFGQGTKVEIK VH: EVQLLESGGGLVQPGGSLRLSCAASGFTFSFYKMTWVRQAPGKGLEWVSGIYPSGGRTVYADSVKGRFTISRDNSKNTLYLQMNSLRAEDTAMYYCARGPHYYDSPGAFDIWGQGTMVTVSS', 'bind to human MMP-14', 'bind to human MMP-14'),
  ('M0039-B07: Fab that binds human MMP-14; DNA LV SEQ ID NO: 68, HV SEQ ID NO: 69 (antibody, V domains shown, Synthetically generated oligonucleotide) VL: QDIQMTQSPLSLSASVGDRVTITCRASQGISNYLAWYQQKPGKVPKLLIYAASTLQSGVPSRFSGSGSGTDFTLTISSLQPEDVATYYCQKYNSARLTFGGGTKVEIK VH: EVQLLESGGGLVQPGGSLRLSCAASGFTFSLYPMLWVRQAPGKGLEWVSGISPSGGQTFYADSVKGRFTISRDNSKNTLYLQMNSLRAEDTAVYYCARMAYYSGYFDLWGRGTLVTVSS', 'bind to human MMP-14', 'bind to human MMP-14');
